FYI, the data here is from patent US20150197568A1.

target: T1, HIS FLAG tagged human IL-6 (human, UniProt P05231 30-212); assay: HTRF antibody-ligand competition; competitor biotinylated CAN022D10 IgG
T1 construct: In house; also called HIS FLAG IL-6; HIS/FLAG IL-6
T1 sequence (P05231 other isoform, or with tags, fused parts or gaps): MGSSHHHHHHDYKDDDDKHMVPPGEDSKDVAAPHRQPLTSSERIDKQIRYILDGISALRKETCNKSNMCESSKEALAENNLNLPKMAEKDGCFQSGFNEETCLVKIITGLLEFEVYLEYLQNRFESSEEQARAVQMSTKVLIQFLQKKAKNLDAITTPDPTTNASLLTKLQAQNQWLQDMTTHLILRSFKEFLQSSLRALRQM
Give measured IC50 for each item. Keep answers brief.
# output: bare number, implied unit nM

# input binder: Antibody 2 scFv (scFv, V domains shown, Non-germlined; also called Ab 2; not shown: scFv linker, domain order and any purification tags) VH: EVQLVQSGGGLIQPGGSLRLSCAASGFTISSNYMTWVRQAPGKGLEWVSDLYYYAGDTYYADSVRGRFTMSRDISKNTVYLQMDSLRAEDTGVYYCARWADGHYYYIDVWGGGTLVTVSS VL: DIVMTQSPSTLSASVGDRVTITCRASQGISSWLTWYQQKPGRAPKVLIYKASTLESGVPSRFSGSGSGTDFTLTISSLQPEDFATYYCQQSYSAPWTFGQGTKLELKR ; wanted: its IC50 0.035

Given Antibody 3 scFv (scFv, V domains shown, Non-germlined; also called Ab 3; not shown: scFv linker, domain order and any purification tags) VH: QVQLVQSGGGLIQPGGSLRLSCAASGFTISSNYMVWVRQAPGKGLEWVSDLYYYAGDTYYADSVKGRFTVSRDISKNTVYLQMNSLRAEDTGVYYCARWADDHYYHIDVWGRGTLVTVSS VL: DIVMTQSPSTLSASVGDRVTITCRASQGISSWLAWYQQKPGRAPKALIYKASTLESGVPSRFSGSGSGTDFTLTISSLQPEDFATYYCQQSYSTPWTFGQGTKLEIKR , state its recorded IC50. 0.022

// IC50 lookup, key: Antibody 5 scFv (scFv, V domains shown, Non-germlined; also called Ab 5; not shown: scFv linker, domain order and any purification tags) VH: EVQLVQSGGGLIQPGGSLRLSCAASGFTISSNYMIWVRQAPGKGLEWVSDLYYYAGDTYYADSVKGRFTMSRDISKNTVYLQMNSLRAEDTGVYYCARWADGHYYYADVWGRGTLVSVSS VL: DIVMTQSPPTLSASVGDRVTITCRASQGISSWLAWYQQKPGRAPKVLIYKASTLESGVPSRFSGSGSGTDFTLTISSLQPEDFASYYCQQSYSAPWTFGQGTKLEIKR 0.065

What value of IC50 has been recorded for this entry: Antibody 4 scFv (scFv, V domains shown, Non-germlined; also called Ab 4; not shown: scFv linker, domain order and any purification tags) VH: EVQLVQSGGGLIQPGGSLRLSCAASGFTVSSNYMTWVRQAPGKGLEWVSDLYYYAGDTYYADSVKGRFTMSRDISKNTVYLQMNSLRAEDTGVYYCARWADGHYYYADVWGRGTLVSVSS VL: DIVMTQSPSTLSASVGDRVTITCRASQGISSWLAWYQQKPGRAPKVLIYKASTLESGVPSRFSGSGSGTDFTLTISSLQPEDFASYYCQQSYSAPWTFGQGTKLELKR 0.024
